Data credit: paper PMC6044835

target: CYP505A30 heme domain (Thermothelomyces thermophilus, UniProt G2QDZ3); assay: UV–visible spectral binding titration with CYP505A30 heme domain; conditions: extent of HS heme iron accumulated, heme domain, estimated to nearest 5%
# if value of HS (%) reaches 60%, tag TRUE; if it stays below, tag FALSE

Compound | Assigned Category
CCCCCCCCCCCCCCCC(=O)O | FALSE
CCCCCCCCCCCCCC(=O)O | TRUE
CCCCCCCCCCCCCCCC(=O)NCC(=O)O | TRUE
CCCCCCCCCCCCCCC(=O)O | TRUE
CCCCCCCCCCCCCCCCC(=O)O | FALSE
CCCCCCCCCCCCCCCCCC(=O)O | FALSE
CCCCC/C=C\C/C=C\C/C=C\C/C=C\CCCC(=O)O | TRUE

###

target: UniProtKB G2QDZ3; assay: UV–visible spectral binding titration with intact CYP505A30; settings: KD
# key: entry, value: Kd
Readout Name: Kd (µM)

Compound | Readout Name | Assay Value
Clc1ccc(COC(Cn2ccnc2)c2ccc(Cl)cc2Cl)cc1 (centres unmarked) | Kd | 10
CCCCCCCCCC(=O)O | Kd | 21.1

###

target: CYP505A30 (Thermothelomyces thermophilus, UniProt G2QDZ3); experiment: UV-visible spectral binding titration of imidazole-type inhibitors (Soret red shift by distal heme iron coordination) to intact CYP505A30 in 50 mM potassium phosphate pH 7.0 (25 °C stated for the substrate titrations), hyperbolic fit for bifonazole.; set-up: gene MYCTH_101224; intact CYP505A30, amino acids 1-1080, N-terminal hexahistidine tag (pET15b), expressed in E. coli; conditions: read-out: KD values (azole/imidazole inhibitors)

Compound | Reading Unit | Kd
c1c[nH]cn1 [imidazole] | µM | 723

###

Target: heme domain (Thermothelomyces thermophilus)
Construct: heme domain, amino acids 1-464 (stop codon at Gly465, named D464X), N-terminal hexahistidine tag (pET15b), expressed in E. coli
Sequence (G2QDZ3 1-464): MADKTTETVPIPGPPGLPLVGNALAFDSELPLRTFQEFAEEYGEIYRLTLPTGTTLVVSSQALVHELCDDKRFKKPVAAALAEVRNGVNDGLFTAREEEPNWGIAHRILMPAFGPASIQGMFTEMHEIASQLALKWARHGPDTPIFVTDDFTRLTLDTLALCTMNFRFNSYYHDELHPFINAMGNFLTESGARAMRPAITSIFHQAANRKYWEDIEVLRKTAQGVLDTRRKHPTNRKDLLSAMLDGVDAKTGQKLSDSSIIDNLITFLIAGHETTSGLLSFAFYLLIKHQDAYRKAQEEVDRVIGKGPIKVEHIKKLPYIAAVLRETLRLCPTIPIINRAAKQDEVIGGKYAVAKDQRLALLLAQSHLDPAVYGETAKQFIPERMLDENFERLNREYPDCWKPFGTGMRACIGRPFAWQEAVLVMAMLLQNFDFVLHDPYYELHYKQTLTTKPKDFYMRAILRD
Experiment: UV-visible spectral binding titration of fatty acid substrates (type I heme Soret shift) to ca. 4-6 uM enzyme in 50 mM potassium phosphate pH 7.0 at 25 °C, hyperbolic or Morrison fit.

Compound | Kd
CCCCCCCCCCCCCCCC(=O)NCC(=O)O | 2700 nM

###

target: CYP505A30 (Thermothelomyces thermophilus, UniProt G2QDZ3); assay: UV-visible spectral binding titration of fatty acid substrates (type I heme Soret shift) to ca. 4-6 uM enzyme in 50 mM potassium phosphate pH 7.0 at 25 °C, hyperbolic or Morrison fit.; parameters: gene MYCTH_101224; intact CYP505A30, amino acids 1-1080, N-terminal hexahistidine tag (pET15b), expressed in E. coli
Readout Name: Kd (µM)

Compound | Readout Name | Assay Value
CCCCCCCCCCCCCCCC(=O)NCC(=O)O [N-palmitoylglycine (NPG), N-palmitoylglycine] | Kd | 5.4
